Target: human FAAH (Homo sapiens, UniProt O00519)
Construct: expressed in transfected cells; host or cells: H4 cells (H4-FAAH, Geneticin-selected); crude membrane homogenates
Sequence (O00519 whole entry): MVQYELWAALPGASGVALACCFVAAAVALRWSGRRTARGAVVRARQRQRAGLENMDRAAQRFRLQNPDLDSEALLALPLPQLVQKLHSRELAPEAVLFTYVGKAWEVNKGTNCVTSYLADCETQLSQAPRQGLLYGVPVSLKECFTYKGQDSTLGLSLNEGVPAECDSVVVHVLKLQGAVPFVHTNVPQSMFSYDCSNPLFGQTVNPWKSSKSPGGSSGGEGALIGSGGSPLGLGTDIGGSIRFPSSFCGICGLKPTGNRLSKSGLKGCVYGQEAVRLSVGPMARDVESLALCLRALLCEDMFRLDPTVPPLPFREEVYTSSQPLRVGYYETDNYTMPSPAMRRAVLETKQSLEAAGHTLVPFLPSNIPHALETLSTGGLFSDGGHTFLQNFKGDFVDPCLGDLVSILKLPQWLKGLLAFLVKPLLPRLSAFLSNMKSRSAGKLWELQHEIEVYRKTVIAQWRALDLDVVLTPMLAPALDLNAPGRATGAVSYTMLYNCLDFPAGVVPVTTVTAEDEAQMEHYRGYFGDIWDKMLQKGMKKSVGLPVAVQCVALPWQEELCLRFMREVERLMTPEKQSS
Test: FAAH activity in membrane homogenates of H4-FAAH cells, [3H]-anandamide hydrolysis
Format: biochemical
Details: H4-FAAH cell membranes, 10 μM anandamide, room temperature, one hour; read-out: IC50
measured property: IC50

[
  {
    "compound": "O=C(Nc1ccc(Oc2cccnc2)cc1)O/N=C/c1ccccc1 [Example 151]",
    "IC50": "< 10 nM"
  },
  {
    "compound": "CCCCCCCOc1ccc(NC(=O)Oc2ccccc2)cc1 [Example 96]",
    "IC50": "< 10 nM"
  }
]

Hey, quick one: what's IC50 for each of these?
1. CCCCCCCOc1ccc(NC(=O)Oc2ccccc2F)cc1 [Example 97]
2. CCCCCCCCCCOc1ccc(NC(=O)ON=C(C)C)cc1 [Example 32]
3. CCCCOc1ccc(C(CC)NC(=O)Oc2cccc(C(F)(F)F)c2)cc1 (stereo not shown) [Example 130]
4. O=C(Nc1ccc(Oc2cccnc2)cc1)O/N=C/c1ccc(F)cc1 [Example 150]

## Result
10 to 100 nM
< 10 nM
10 to 100 nM
< 10 nM
